- Test system: K4 kissing-loop RNA reporter
- MEASUREMENT_PROTOCOL: apparent KD of K4 kissing-loop reporter; higher = weaker reporter binding
- CONDITION: Eterna round: R107; input ligand: theophylline 20 uM
Could you label it 1 (yes) if measured apparent KD of K4 kissing-loop reporter is 200 nM or higher, and 0 (no) otherwise?

## Task Form field: apparent KD of K4 kissing-loop reporter at least 200 nM? Entry: UUUCGGUUCUGAGGAUAUUCGGACAAAUAUAGUGAUGUUGUAUAAGGAGGAGGGUGUUGGCAGUGCGGAGAAGGCAGAAGAGGAU [ExFMNB.U]
## Result 1 (yes)

## Task Exam item: decide whether the reported apparent KD of K4 kissing-loop reporter for UUAUUGAGCGUUUGUGAGAAGGCGUUCUUCAAGGAUAUCGACGUAACGAGAAGGUGAUUCGUUCCGAGUGAUGUUCGGUACGGGC [theeternabot_sameState_KL_FMN_A_4] is at least 200 nM.
## Result 1 (yes)

## Task Decide: is the reported value of apparent KD of K4 kissing-loop reporter for GGCAGUGAUGUUGCCAGUGGCAGAUGAGAAGGAGCGUGGUGAGACACAGGUAGGUCGCUCAUUGAAAUUGCUGUCACUAAAAUGC [#5] equal to or greater than 200 nM?
## Result 1 (yes)

## Task Determine whether measured apparent KD of K4 kissing-loop reporter meets or exceeds 200 nM for AGUGCACUGUCAGGAUAUAUACAGUGAUGUUGUGUAUGUCAGCAAGUCAAAGACUUGCUCUUCUGUGUAGAAGGGACUGUGUACA [Omei KL FMN B Exc A v4]
## Result 0 (no)

## Task Form field: apparent KD of K4 kissing-loop reporter at least 200 nM? Entry: CCAACAACGAGUGAUGUUCGUUGAUCUGAAGGAGCGUCAAUAAUGACAGGUAGGUCGCAGAUAAUUGGAUAUAGGGCAAUAGCUC [Same State Arginine A GF13]
## Result 0 (no)

## Task Does the sequence GGUCCGCACAUGAGUGAUGUUCAUGUAGAUACCAGUAUCGAAAGAUACCCUUGGCAGCUACGGCACGGACCGGCGGGAAACCGCC have recorded apparent KD of K4 kissing-loop reporter that is 200 nM or more?
## Result 1 (yes)

###

- Test system: K4 kissing-loop RNA reporter;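 further: bound reporter read as fluorescence of individual clusters on recovered sequencing chips by microscopy, with normalized cluster intensities fitted with a binding model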
- MEASUREMENT_PROTOCOL: apparent KD of K4 kissing-loop reporter; higher = weaker reporter binding
- CONDITION: Eterna round: R107; input ligand: tryptophan 2.4 mM
Class Yes: apparent KD of K4 kissing-loop reporter at least 300 nM. Class No: apparent KD of K4 kissing-loop reporter below 300 nM.

## Task Textbook exercise: given the entry CGUUUAUAGCAGGAUACCAGUACCCAUAAAGUACGUUAAUAGUAGAGUGAUGUUCUAAAGUACCCUUGGCAGCUUCCAGUGAGUG [ExTheophylB.S] , state whether its apparent KD of K4 kissing-loop reporter is greater than or equal to 300 nM.
## Result No

## Task Is it the case that CAUACGCAUGGAGGAUAUGAGAUUACUCAUAUCAUUUAAUAUUCUCAGUGAUGUUGAGAUUUGGGCUCAGAAGGCCAUGUGUAUG [Ex FMN B 15] has apparent KD of K4 kissing-loop reporter reaching or exceeding 300 nM?
## Result Yes

## Task Check the entry UUCUACGAGUGAUGUUCGUAGUGUAAUCGCUAGGAUAUCGUUUUUUCGAGAAGGAGCGUCGAAGUGAUACGAAAGUAUCGCUUCG [FMN A 13] : does apparent KD of K4 kissing-loop reporter equal or exceed 300 nM?
## Result No

## Task Please indicate if the recorded apparent KD of K4 kissing-loop reporter for GCAACUCUCAGUGAUGUUGAGUUAUCGGAAGGAGCGCGUGAAAACGCAGGUAGGUCGCCGAUACAAUGAGUUUCUCGUUGGUUGC [Arginine A K4 21] meets or exceeds 300 nM.
## Result Yes

## Task Reported apparent KD of K4 kissing-loop reporter at or above 300 nM? GGCAGUGAUGUUGCCUAAGCAACGCAUGCAGAGGAUAUUCGUUCGGGAAGAAGGCUGCAGCGUUCUCUCGCGAGUGAUGUUCGCG [Same State FMN A GF 23]
## Result No

## Task Item AAUUUCGGAUACAUCAUAGUUUUAAUUCGGCGAGGACCGGUACGGCCGCCACUCGGUAUAGACGCGUCCAGUGAUGUUGGCGCUU [theeternabot_sameState_KL_Trp_A_45] with apparent KD of K4 kissing-loop reporter of 300 nM or above?
## Result No

## Task Tell me whether apparent KD of K4 kissing-loop reporter is at least 300 nM here: AAUUGAGUGACGGCCGCCACUAGAGUGAUUUUUUUGUUUGAGUGAUGUUUUGAUGUUUGAUUUUGUAGGACCGGGUUGAGUGAUG [qqxzmullin]
## Result No

## Task Quick check: does CCAUCGCUAUUCGAUACCAGCUACUUAGUGAUGUUAAGUUUAUAUCCACUGUAGGUGGAAAGCCCUUGGCAGCGAAUAGUGAUGG [Theophylline B K4 25] have apparent KD of K4 kissing-loop reporter greater than or equal to 300 nM?
## Result Yes

## Task Please indicate if the recorded apparent KD of K4 kissing-loop reporter for UUUUUGGAGAAUUAUAGUGAUGUUAUGAAGGAGGAUAUCUGGAGAUGGAGAAGGCCUAGUGGCUCAGCCAUGGAGGGUGGGUGGG [ExFMNA.aA] meets or exceeds 300 nM.
## Result Yes

## Task Textbook exercise: given the entry AGGAGCUGUCGACAAAAGUCGACAUAAACCAAGGAUAUGACGAAAGUCAGAAGGUGGUCAUAAGACCAGUGAUGUUGGUAGCUCC [FmnA 10 #SwitchBubble #K4Late] , state whether its apparent KD of K4 kissing-loop reporter is greater than or equal to 300 nM.
## Result Yes

## Task Evaluate UGAUAGGACAGAAGGAGCGGGCUAGUCAAAGACUAGCAAACGUUAAUAACAGGAGUGAUGUUCCAGGUAGGUCGCUGUCCUAUCU [ArgBX 25 #SwitchBubble #StaticStem] : apparent KD of K4 kissing-loop reporter at minimum 300 nM?
## Result No

## Task Quick check: does AAAUUUAAUAUAUUUAAUUAAUUAUGUGAUACCAGACAUUUAUAAGUCCCUUGGCAGCACUUUGCAGUGAUGUUGCUUAUAAUAA [JR_SSTheophyA_Sub014] have apparent KD of K4 kissing-loop reporter greater than or equal to 300 nM?
## Result No

## Task Could you please find out whether AAGUGAUGUUGUAGUGAUGUUGUGAUGUUGCAGGAUAUAUAGUGAUGUAGAAGGGUAUGUGCAGUUUUCUUUUUUGAGUGUUGAU [aavamullin] has apparent KD of K4 kissing-loop reporter that meets 300 nM or exceeds it?
## Result No

## Task Does the reported apparent KD of K4 kissing-loop reporter for AUAAUAUGAGUGAUGUUCAUGUAAGCUGAAGGAGCGGACGAAAGUCCAGGUAGGUCGCAGCGUUCCUUUACCUCAUGAGAAGGAG [KL_SSArg-A1 #analogue] fall at or above the 300 nM mark?
## Result No

## Task Check the entry CCAACAACGAGUGAUGUUCGUUGAUCUGAAGGAGCGUCAAUAAUGACAGGUAGGUCGCAGAUAAUUGGAUAUAGGGCAAUAGCUC [Same State Arginine A GF13] : does apparent KD of K4 kissing-loop reporter equal or exceed 300 nM?
## Result No

## Task Has GGGAGAAGAGCGGCCGCCACUCAGACAGCAGCAGAAUAUAGUGAUGUUAUAUAGGAAAGGCGGAGGAGGACCGGGCUUAAGAGGG [#20 K4 Tryptophan B Same State] a recorded apparent KD of K4 kissing-loop reporter greater than or equal to 300 nM?
## Result Yes

## Task Textbook exercise: given the entry AAAAUAAACCAGUGAUGUUGGUGUCUAGAUACCAGCGACGAAAGUCGCCCUUGGCAGCUAUGGACGUACAAAAUAAGUACGUCCU [MatMod 6 - Jieux - Same State - Theophylline A] , state whether its apparent KD of K4 kissing-loop reporter is greater than or equal to 300 nM.
## Result Yes

## Task In plain terms: is recorded apparent KD of K4 kissing-loop reporter at least 300 nM for CCGAGCCUGACGAAAGUCAGGCUCUGCGAGCGAGGACCGGUACGGCCGCCACUCGGUGCAGUGAUGUUGCAUGGCCGCAAGGCCG [#2 Exclusion - Tryptophan A Attempt #22 (HarryS)] ?
## Result Yes

## Task State whether the measured apparent KD of K4 kissing-loop reporter reaches 300 nM, counting equality as reaching it, for CGAAGAAAGGUAUGUGGGAUCUGCGCGUAACGAGGACCGGUACGGCCGCCACUCGACGUCGCAUACGGCCCAGUGAUGUUGGGUG [theeternabot_sameState_KL_Trp_A_14]
## Result No

## Task Hi team, for UGUGUUUACCUGACUCAGUGAUGUUGAGAAGGAGCGUGCAAAGGCACAGGUAGGUCGCUCAACCUAAAUUCAGGUGAGCACUAAA , is the recorded apparent KD of K4 kissing-loop reporter at or above 300 nM?
## Result No

## Task Given the entry UGGAUAUCGUUUAGUCUGGUGAGCUCAGAUACCAGACUAGCGAUGGUCCCUUGGCAGCUGAUUACGAUUGAGUGAUGUUCAAUCG [Theo A Ex t9c] , answer whether its apparent KD of K4 kissing-loop reporter meets or surpasses 300 nM.
## Result No

## Task Please check the record ACUCCGAGUGAUGUUAAGAGAUUCUCUGUUAAGGAUAUUUUGCGCAAAAGAAGGUAACCCGGUUUUCGUAAUCUGUUAAUGCGGA [theeternabot_exclusion_KL_FMN_A_38] and state if its apparent KD of K4 kissing-loop reporter is at or above 300 nM.
## Result Yes

## Task Please indicate if the recorded apparent KD of K4 kissing-loop reporter for AGGUUUUGAUUAGGAUAUGCACUGAGGAGGAGAAUAUAGUGAUGUUAUAUAAGAGGAAGGAGUAGAGUAGAAGGGAUUGAGGUUU [SSFMNB.R] meets or exceeds 300 nM.
## Result No
